biological target: LDB3, O75112; assay: holdup assay; set-up: key: below the threshold = too weak to quantify, mostly under pKd 3.1 to 4; settings: plain residues with an end cap or a label only (N-terminal biotin on a linker: ahx)
Sequence (O75112 1-94): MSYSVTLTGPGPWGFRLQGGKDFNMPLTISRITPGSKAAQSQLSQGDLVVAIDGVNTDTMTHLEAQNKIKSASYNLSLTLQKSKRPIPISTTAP
quantity.name: pKd

1) ESLLLGPSNF [SHROOM4, Q9ULL8] = below the threshold
2) RRRKRKRTYL [HPV49-L2, P36762] = below the threshold
3) PSASCAVTAA [PDLIM4, P50479;P50479-2] = below the threshold
4) LSDPSVSTVV [GRIN1, Q05586;Q05586-2] = below the threshold
5) HNAFLSVTTV [PDZRN4, Q6ZMN7] = 3.56

[ask] Give the value of pKd reported for the following: GYDWGPATDL [TJP3, O95049]
[reply] 3.97

[ask] Give the value of pKd reported for the following: TVICWPGSLV [LNX2, Q8N448]
[reply] below the threshold

[ask] Give the value of pKd reported for the following: NRKREIFSNF [NHERF2, Q15599]
[reply] below the threshold

[ask] Give the value of pKd reported for the following: RAVEEEESRF [PSCDBP, O60759]
[reply] below the threshold

[ask] Give the value of pKd reported for the following: SDSSGQEYSL [KCTD3, Q9Y597]
[reply] below the threshold
